study_target: Glucocorticoid receptor (Rattus norvegicus) (UniProt P06536)
Sequence (P06536 whole entry): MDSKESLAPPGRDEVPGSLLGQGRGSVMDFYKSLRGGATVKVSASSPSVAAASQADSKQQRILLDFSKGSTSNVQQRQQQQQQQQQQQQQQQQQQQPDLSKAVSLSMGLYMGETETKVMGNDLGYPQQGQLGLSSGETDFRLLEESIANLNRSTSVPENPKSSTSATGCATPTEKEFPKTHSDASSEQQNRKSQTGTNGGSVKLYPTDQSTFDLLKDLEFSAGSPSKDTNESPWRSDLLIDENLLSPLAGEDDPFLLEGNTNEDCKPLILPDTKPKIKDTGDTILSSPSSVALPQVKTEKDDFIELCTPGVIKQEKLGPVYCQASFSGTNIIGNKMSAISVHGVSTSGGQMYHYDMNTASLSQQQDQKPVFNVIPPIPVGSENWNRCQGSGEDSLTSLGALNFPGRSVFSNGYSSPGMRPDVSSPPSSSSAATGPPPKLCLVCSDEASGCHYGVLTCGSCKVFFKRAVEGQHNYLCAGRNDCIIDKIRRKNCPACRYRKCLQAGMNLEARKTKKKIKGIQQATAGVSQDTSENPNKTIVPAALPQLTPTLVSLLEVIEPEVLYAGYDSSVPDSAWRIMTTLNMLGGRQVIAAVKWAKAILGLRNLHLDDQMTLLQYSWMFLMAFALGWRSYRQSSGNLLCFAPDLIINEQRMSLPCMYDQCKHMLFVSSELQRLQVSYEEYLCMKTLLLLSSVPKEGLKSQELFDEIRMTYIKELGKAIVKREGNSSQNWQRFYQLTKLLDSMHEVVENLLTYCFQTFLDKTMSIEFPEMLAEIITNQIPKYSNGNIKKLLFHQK
test_details: In vivo glucocorticoid profile, depression of thymus weight in rat at 5 mg/kg peroral dose
Format: functional, organism-based
Design: dose 5 mg/kg
Threshold check on Change: at or above -70% gives Met, strictly below gives Not met.

{"columns": ["compound", "study_target", "category"],
 "data": [
  ["C[C@]12Cc3cnn(-c4ccc(F)cc4)c3C=C1CC[C@@H]1OC3(CC=C12)C(=O)c1ccccc1C3=O", "Glucocorticoid receptor (Rattus norvegicus) (UniProt P06536)", "Not met"],
  ["CN1C(=O)N(C)C(=O)C2(CC=C3[C@H](CCC4=Cc5c(cnn5-c5ccc(F)cc5)C[C@@]43C)O2)C1=O (stereo in doubt; 12a)", "Glucocorticoid receptor (Rattus norvegicus) (UniProt P06536)", "Not met"],
  ["C#C[C@]1(O)CCC2[C@@H]3CCC4=Cc5c(cnn5-c5ccc(F)cc5)C[C@]4(C)C3=CC[C@@]21C (stereo partly drawn)", "Glucocorticoid receptor (Rattus norvegicus) (UniProt P06536)", "Not met"],
  ["C[C@]12Cc3cnn(-c4ccccc4)c3C=C1CC[C@@H]1OC3(CC=C12)C(=O)c1ccccc1C3=O", "Glucocorticoid receptor (Rattus norvegicus) (UniProt P06536)", "Met"],
  ["CCOC(=O)C1(C(=O)OCC)CCC=C2[C@@H]1CCC1=Cc3c(cnn3-c3ccc(F)cc3)C[C@@]12C", "Glucocorticoid receptor (Rattus norvegicus) (UniProt P06536)", "Met"],
  ["C#CCN1C(=O)N(CC#C)C(=O)C2(CC=C3[C@H](CCC4=Cc5c(cnn5-c5ccc(F)cc5)C[C@@]43C)O2)C1=O", "Glucocorticoid receptor (Rattus norvegicus) (UniProt P06536)", "Met"]
]}

----------
study_target: Glucocorticoid receptor (Rattus norvegicus) (UniProt P06536)
test_details: In vivo glucocorticoid profile, depression of adrenal weight in rat at 5 mg/kg peroral dose
Format: functional, organism-based
Parameters: dose 5 mg/kg
reported_metric: Change (%)

{"columns": ["molecule", "numeric_value"],
 "data": [
  ["CCOC(=O)C1(C(=O)OCC)CCC=C2[C@@H]1CCC1=Cc3c(cnn3-c3ccc(F)cc3)C[C@@]12C", 0],
  ["C#C[C@]1(O)CCC2[C@@H]3CCC4=Cc5c(cnn5-c5ccc(F)cc5)C[C@]4(C)C3=CC[C@@]21C (some centres undefined)", -60],
  ["C[C@]12Cc3cnn(-c4ccc(F)cc4)c3C=C1CC[C@@H]1OC3(CC=C12)C(=O)NC(=O)NC3=O", -30],
  ["CC(=O)C1CC=C2[C@H](CCC3=Cc4c(cnn4-c4ccc(F)cc4)C[C@@]32C)C1C(C)=O (some centres undefined)", -40],
  ["C[C@]12Cc3cnn(-c4ccc(F)cc4)c3C=C1CC[C@@H]1OC3(CC=C12)C(=O)c1ccccc1C3=O", -64],
  ["C[C@H]1C[C@@H]2[C@H]([C@@H](O)C[C@@]3(C)[C@H]2CC[C@]3(O)C(=O)CO)[C@@]2(C)C=CC(=O)C=C12", -42],
  ["C[C@]12Cc3cnn(-c4ccccc4)c3C=C1CC[C@@H]1OC3(CC=C12)C(=O)c1ccccc1C3=O", -38],
  ["C#CCN1C(=O)N(CC#C)C(=O)C2(CC=C3[C@H](CCC4=Cc5c(cnn5-c5ccc(F)cc5)C[C@@]43C)O2)C1=O", 0],
  ["CN1C(=O)N(C)C(=O)C2(CC=C3[C@H](CCC4=Cc5c(cnn5-c5ccc(F)cc5)C[C@@]43C)O2)C1=O (stereo in doubt; 12a)", -63]
]}
